experiment: yeast display, Sf9 membrane polyspecificity reagent, FACS + sequencing; frameworks hold sequencing errors
endpoint label: polyreactivity (PSR sort gate)

Below: 4 sequences and their reported polyreactivity (PSR sort gate).
- QVQLEESGGGLVQAGGSLRLSCAASGSILVKYAMGRYRQAPGKERELVASITSTGNTYYADSVKGRFTISRDNAKNTVYLQMNSLKPEDTAVYYCAADAAFTYVYFQSDGYNYWGQGTQVTVSS: low polyreactivity
- QVQLVESGGGLVHAGGSLRLSCAASGRIFYQYAMGWYRQAPGKERELVAAIRYRDDGTYYADSVKGRLTISRDNAKNTVYLQMNSLKPEDTAVYYCAGKQWGRYGYWGQGTQVTVSS: high polyreactivity
- QVQLVESGGGLVQAGGSLRLSCAASGLIFKIYAMGWYRQAPGKERELVASISSNGGTYYADSVKGRFTISRDNAKKTVYLQMNSLKPEDTAVYYCNAKRVARYQYGASYNYWGQGTQVTVSS: high polyreactivity
- QVQLVESGGGLVQAGGSLRLSCAASGSIFYWNTMGWYRQAPGKERELVAAISYSGGSTYYADSVKGRFTISRDNAKNTVYLQMNSLKPEDTAVYYCAAKYYNRFYYWGQGTQVTVSS: high polyreactivity

Request: Need polyreactivity (PSR sort gate), item QVQLVESGGGLVQAGGSLRLSCAASGSIFIANAMGWYRQAPGKERELFAAITLNGGSTYYADSVKGRFTISRDNAKNTVYLQMNSLKPEDTAVYYCAADWVWVAPQYWIVEYDYRGQGTQVTVSS
Response: low polyreactivity
